# experimental.target: T1, human interleukin 12 (hIL-12), p70 heterodimer of p35 and p40 (human, UniProt P29459 23-219; P29460 23-328)
# T1 sequence (looked up) 1: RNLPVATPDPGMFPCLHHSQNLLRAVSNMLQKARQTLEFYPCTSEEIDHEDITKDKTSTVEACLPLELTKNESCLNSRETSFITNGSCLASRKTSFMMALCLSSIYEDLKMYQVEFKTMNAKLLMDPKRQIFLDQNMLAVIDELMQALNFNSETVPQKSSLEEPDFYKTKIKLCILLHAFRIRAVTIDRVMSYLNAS
# T1 sequence (looked up) 2: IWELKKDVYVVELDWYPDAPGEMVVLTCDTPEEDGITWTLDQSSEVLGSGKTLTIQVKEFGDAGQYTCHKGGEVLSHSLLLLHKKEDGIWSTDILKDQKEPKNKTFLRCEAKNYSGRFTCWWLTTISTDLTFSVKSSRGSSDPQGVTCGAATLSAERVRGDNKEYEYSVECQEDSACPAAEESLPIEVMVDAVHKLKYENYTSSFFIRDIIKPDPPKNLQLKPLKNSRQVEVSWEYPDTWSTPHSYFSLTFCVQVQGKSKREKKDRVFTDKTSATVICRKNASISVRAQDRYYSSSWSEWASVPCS
# protocol.details: cell-based or functional assay
IFN gamma IC50 values for the binders below.

[
  {
    "binder": "Y61-L94Y IgG (antibody, V domains shown, IgG) VH: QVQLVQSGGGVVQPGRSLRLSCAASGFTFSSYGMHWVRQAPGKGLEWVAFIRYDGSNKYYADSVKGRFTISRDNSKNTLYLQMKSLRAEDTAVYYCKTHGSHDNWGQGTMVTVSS VL: SYVLTQPPSVSGTPGQRVTISCSGGRSNIGSNTVKWYQQLPGTAPKLLIYGNDQRPSGVPDRFSGSKSGTSASLAITGVQAEDEADYYCQSYDRYTHPALLFGTGTKVTVLG",
    "unit.of.measure": "pM",
    "IFN gamma IC50": 40
  },
  {
    "binder": "Y-61-L50Y-H31E**gG (antibody, V domains shown, also called Y61-L50Y-H31E IgG) VH: QVQLVQSGGGVVQPGRSLRLSCAASGFTFSEYGMHWVRQAPGKGLEWVAFIRYDGSNKYYADSVKGRFTISRDNSKNTLYLQMKSLRAEDTAVYYCKTHGSHDNWGQGTMVTVSS VL: SYVLTQPPSVSGTPGQRVTISCSGGRSNIGSNTVKWYQQLPGTAPKLLIYYNDQRPSGVPDRFSGSKSGTSASLAITGVQAEDEADYYCQSYDRGTHPALLFGTGTKVTVLG",
    "unit.of.measure": "pM",
    "IFN gamma IC50": 20
  },
  {
    "binder": "Y61-L50Y* IgG (antibody, V domains shown, IgG) VH: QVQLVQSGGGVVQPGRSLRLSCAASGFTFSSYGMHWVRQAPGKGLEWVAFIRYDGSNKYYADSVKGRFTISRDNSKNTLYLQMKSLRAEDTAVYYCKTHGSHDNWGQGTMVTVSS VL: SYVLTQPPSVSGTPGQRVTISCSGGRSNIGSNTVKWYQQLPGTAPKLLIYYNDQRPSGVPDRFSGSKSGTSASLAITGVQAEDEADYYCQSYDRGTHPALLFGTGTKVTVLG",
    "unit.of.measure": "pM",
    "IFN gamma IC50": 30
  },
  {
    "binder": "Y61-L50Y (antibody, V domains shown) VH: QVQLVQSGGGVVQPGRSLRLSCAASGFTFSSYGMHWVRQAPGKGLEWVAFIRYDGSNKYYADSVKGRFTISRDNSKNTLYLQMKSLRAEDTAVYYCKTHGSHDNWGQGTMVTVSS VL: SYVLTQPPSVSGTPGQRVTISCSGGRSNIGSNTVKWYQQLPGTAPKLLIYYNDQRPSGVPDRFSGSKSGTSASLAITGVQAEDEADYYCQSYDRGTHPALLFGTGTKVTVLG",
    "unit.of.measure": "pM",
    "IFN gamma IC50": 20
  }
]
